# TARGET: AR-LBD PPI interactions with TIF2 and SRC1 coactivators (Homo sapiens, UniProt P10275)
# Construct: AR-LBD amino acids 658-919 expressed as a fusion protein with Gal4-DBD; expressed in transfected cells; host or cells: HEK 293, transient co-transfection
# Sequence (P10275 659-920): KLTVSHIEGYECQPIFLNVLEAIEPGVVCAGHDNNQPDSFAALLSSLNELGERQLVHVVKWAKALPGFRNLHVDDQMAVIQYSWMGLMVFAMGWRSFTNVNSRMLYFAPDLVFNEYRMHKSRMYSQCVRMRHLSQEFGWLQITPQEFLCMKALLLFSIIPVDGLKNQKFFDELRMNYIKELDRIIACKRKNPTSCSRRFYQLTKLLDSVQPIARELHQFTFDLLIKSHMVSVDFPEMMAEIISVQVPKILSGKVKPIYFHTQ
# ASSAY_DETAILS: TIF2 and SRC1 mammalian 2-hybrid assays, results stated jointly
# Assay type: cell-based
# MEASUREMENT_PARAMETERS: both M2H assays; read-out: IC50s, DHT-induced AR-LBD PPI interactions with TIF2 and SRC1 coactivators
PROPERTY_NAME: IC50

Example entries begin here.
CC(=O)NCCC(=O)NCc1ccc2[nH]c(-c3ccccc3F)c(C)c2c1 ... 10 to 20 µM
CNC(=O)c1ccc(-c2c[nH]c3c(C)cccc23)cc1 ... 10 to 20 µM
Cc1c(-c2ccccc2F)[nH]c2ccc(CNC(=O)CCc3cn[nH]c3)cc12 ... < 10 µM
COc1cc(-c2ccc(C)s2)cc2c1OCCN(c1nc(C(N)=O)cs1)C2 ... 20 to 42 µM

Dear colleague, could you send me IC50 for each of the items below? Thanks.
1. Cc1c(-c2ccccc2F)[nH]c2ccc(CNC(=O)c3ccc(CO)o3)cc12
2. Cc1cccc2c(-c3ccc(O)c(F)c3)c[nH]c12
3. Cc1c(-c2ccccc2F)[nH]c2ccc(CNC(=O)CCc3cnccn3)cc12
4. Cc1c(-c2ccc(F)cc2)[nH]c2ccc(CNC(=O)c3ccc(CO)o3)cc12

["< 10 µM", "10 to 20 µM", "< 10 µM", "< 10 µM"]
